Tested on: OVCAR-3 ovarian
ASSAY METHOD TEXT: NCI tumour cell line growth inhibition, 48 h; in the data active means GI50 below about 0.43 µM; inactive means the rest
A correct response names exactly one class from active, inactive

Past entries and their recorded results:
Cc1cc(C(=O)NC(C)(C)C)cc(C#Cc2ccc3c4c(oc3c2)C(C)(C)c2cc(NS(C)(=O)=O)ccc2C4=O)n1 = inactive
O=C(Nc1ccc(Cl)cc1)Nc1ccc(Oc2nncc3ccccc23)cc1 = active
Cc1ccc(S(=O)(=O)NC2=NCCN2C(=S)SN2CCn3c2nsc3=S)cc1 = inactive
O=C1c2ccccc2C(=O)c2c1ccc(C(Br)Br)c2Cl = inactive

Now take the following molecule into account.
Assay outcome for NCCCCCCn1c2c(c3ccccc3c1=O)C(=O)c1ccccc1-2 : what was it?
inactive
